molecular target: GII.3 VLP; test: KD value by bio-layer interferometry (BLI, BLItz), peptide on SA chip, GII.3 VLP; format: binding, norovirus GII.3 TCH strain; details: GII.3 VLP; dissociation in PBS 60 sec
PROPERTY: kd (s⁻¹)
Reply numerically in s⁻¹, unit not repeated.

POLYMER SEQUENCE	kd [s⁻¹]
YVVASKSNRL [No. 143]	0.0044
SVMVTRSLFG [No. 163]	0.00786
YRRSKSEIFV [No. 59]	0.00714

// next entry
Fill in the blank: the reported kd of VCVDNDISMS [No. 150] is ____.
0.0118

Where these numbers come from: patent US12535483B2
